These data points were gathered from the supplement of paper PMC10567573.

B1: PWWP2B (parent)
chain: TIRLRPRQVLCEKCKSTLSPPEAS

Variants of: B1
assay-procedure: protein stability index of a GFP-peptide fusion (GPS, HEK-293T) (PSI 1-6); higher = more stable;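 further: lentivirally expressed fusions sorted by FACS into six bins by GFP to DsRed ratio, PSI derived from sequencing read proportions per bin multiplied by bin number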
run-conditions: c terminus: a fixed tail appended
Below, each entry is listed alongside its reported protein stability index.
// print number alone

>>> test_result("L10Q")
3.53
>>> test_result("L10P")
3.37
>>> test_result("T17I")
2.88
>>> test_result("P21V")
2.95
>>> test_result("P21W")
2.35
>>> test_result("Q8M")
2.92
>>> test_result("K15F")
3.01
>>> test_result("R5S")
3.43
>>> test_result("S19F")
2.83
>>> test_result("S24F")
2.36

Need protein stability index of "E12K" , thanks.
2.42

Next entry: "P20R"
2.65

Next entry: "L18K"
3.11

Next entry: "R7T"
3.31

Next entry: "L4G"
3.63
